# Method notes: Particle size distribution
# Assay type: physicochemical
# Condition info: solid obtained by the process of the example
Measurement name: Particle size distribution d90 (μ)

1: CCCCC(=O)N(Cc1ccc(-c2ccccc2-c2nnn[nH]2)cc1)[C@H](C(=O)O)C(C)C [Example 5 A, Valsartan]
2: CCCCC(=O)N(Cc1ccc(-c2ccccc2-c2nnn[nH]2)cc1)[C@H](C(=O)O)C(C)C [Example 1, Valsartan]
// which entry has the larger Particle size distribution d90 value, 1 or 2 ? Use the label to indicate which entry you chose.
1

====

# Method notes: Particle size distribution
# Type: physicochemical
# Condition info: solid obtained by the process of the example
Measurement name: Particle size distribution d10 (μ)

INSERT INTO measurements (compound, measurement_name, recorded_result) VALUES
  ('CCCCC(=O)N(Cc1ccc(-c2ccccc2-c2nnn[nH]2)cc1)[C@H](C(=O)O)C(C)C [Example 4, Valsartan]', 'Particle size distribution d10', 2.011),
  ('CCCCC(=O)N(Cc1ccc(-c2ccccc2-c2nnn[nH]2)cc1)[C@H](C(=O)O)C(C)C [Example 1, Valsartan]', 'Particle size distribution d10', 1.906),
  ('CCCCC(=O)N(Cc1ccc(-c2ccccc2-c2nnn[nH]2)cc1)[C@H](C(=O)O)C(C)C [Example 2, Valsartan]', 'Particle size distribution d10', 1.686),
  ('CCCCC(=O)N(Cc1ccc(-c2ccccc2-c2nnn[nH]2)cc1)[C@H](C(=O)O)C(C)C [Example 3, Valsartan]', 'Particle size distribution d10', 1.5421);

I: CCCCC(=O)N(Cc1ccc(-c2ccccc2-c2nnn[nH]2)cc1)[C@H](C(=O)O)C(C)C [Example 5 B, Valsartan]
II: CCCCC(=O)N(Cc1ccc(-c2ccccc2-c2nnn[nH]2)cc1)[C@H](C(=O)O)C(C)C [Example 5 A, Valsartan]
// which entry has the larger Particle size distribution d10 value, I or II ? Use the label to indicate which entry you chose.
II

====

# Method notes: Particle size distribution
# Assay type: physicochemical
# Condition info: solid obtained by the process of the example
Measurement name: Particle size distribution d50 (μ)

INSERT INTO assay_data (compound, measurement_name, unit_annotation, recorded_result) VALUES
  ('CCCCC(=O)N(Cc1ccc(-c2ccccc2-c2nnn[nH]2)cc1)[C@H](C(=O)O)C(C)C [Example 5 A, Valsartan]', 'Particle size distribution d50', 'μ', 18.401),
  ('CCCCC(=O)N(Cc1ccc(-c2ccccc2-c2nnn[nH]2)cc1)[C@H](C(=O)O)C(C)C [Example 1, Valsartan]', 'Particle size distribution d50', 'μ', 4.134),
  ('CCCCC(=O)N(Cc1ccc(-c2ccccc2-c2nnn[nH]2)cc1)[C@H](C(=O)O)C(C)C [Example 2, Valsartan]', 'Particle size distribution d50', 'μ', 4.420),
  ('CCCCC(=O)N(Cc1ccc(-c2ccccc2-c2nnn[nH]2)cc1)[C@H](C(=O)O)C(C)C [Example 4, Valsartan]', 'Particle size distribution d50', 'μ', 4.636);

1: CCCCC(=O)N(Cc1ccc(-c2ccccc2-c2nnn[nH]2)cc1)[C@H](C(=O)O)C(C)C [Example 3, Valsartan]
2: CCCCC(=O)N(Cc1ccc(-c2ccccc2-c2nnn[nH]2)cc1)[C@H](C(=O)O)C(C)C [Example 5 B, Valsartan]
// which entry has the larger Particle size distribution d50 value, 1 or 2 ? Use the label to indicate which entry you chose.
1

====

# Method notes: Particle size distribution
# Type: physicochemical
# Condition info: solid obtained by the process of the example
Measurement name: Particle size distribution d90 (μ)

INSERT INTO assay_data (compound, measurement_name, unit_annotation, recorded_result) VALUES
  ('CCCCC(=O)N(Cc1ccc(-c2ccccc2-c2nnn[nH]2)cc1)[C@H](C(=O)O)C(C)C [Example 3, Valsartan]', 'Particle size distribution d90', 'μ', 7.869),
  ('CCCCC(=O)N(Cc1ccc(-c2ccccc2-c2nnn[nH]2)cc1)[C@H](C(=O)O)C(C)C [Example 4, Valsartan]', 'Particle size distribution d90', 'μ', 8.611),
  ('CCCCC(=O)N(Cc1ccc(-c2ccccc2-c2nnn[nH]2)cc1)[C@H](C(=O)O)C(C)C [Example 5 B, Valsartan]', 'Particle size distribution d90', 'μ', 8.42),
  ('CCCCC(=O)N(Cc1ccc(-c2ccccc2-c2nnn[nH]2)cc1)[C@H](C(=O)O)C(C)C [Example 2, Valsartan]', 'Particle size distribution d90', 'μ', 8.684);
